Each recorded value in this set is attributed to the supplement of paper PMC10065799.

Target: MERTK (UniProt Q12866)
Sequence (Q12866 whole entry, looked up): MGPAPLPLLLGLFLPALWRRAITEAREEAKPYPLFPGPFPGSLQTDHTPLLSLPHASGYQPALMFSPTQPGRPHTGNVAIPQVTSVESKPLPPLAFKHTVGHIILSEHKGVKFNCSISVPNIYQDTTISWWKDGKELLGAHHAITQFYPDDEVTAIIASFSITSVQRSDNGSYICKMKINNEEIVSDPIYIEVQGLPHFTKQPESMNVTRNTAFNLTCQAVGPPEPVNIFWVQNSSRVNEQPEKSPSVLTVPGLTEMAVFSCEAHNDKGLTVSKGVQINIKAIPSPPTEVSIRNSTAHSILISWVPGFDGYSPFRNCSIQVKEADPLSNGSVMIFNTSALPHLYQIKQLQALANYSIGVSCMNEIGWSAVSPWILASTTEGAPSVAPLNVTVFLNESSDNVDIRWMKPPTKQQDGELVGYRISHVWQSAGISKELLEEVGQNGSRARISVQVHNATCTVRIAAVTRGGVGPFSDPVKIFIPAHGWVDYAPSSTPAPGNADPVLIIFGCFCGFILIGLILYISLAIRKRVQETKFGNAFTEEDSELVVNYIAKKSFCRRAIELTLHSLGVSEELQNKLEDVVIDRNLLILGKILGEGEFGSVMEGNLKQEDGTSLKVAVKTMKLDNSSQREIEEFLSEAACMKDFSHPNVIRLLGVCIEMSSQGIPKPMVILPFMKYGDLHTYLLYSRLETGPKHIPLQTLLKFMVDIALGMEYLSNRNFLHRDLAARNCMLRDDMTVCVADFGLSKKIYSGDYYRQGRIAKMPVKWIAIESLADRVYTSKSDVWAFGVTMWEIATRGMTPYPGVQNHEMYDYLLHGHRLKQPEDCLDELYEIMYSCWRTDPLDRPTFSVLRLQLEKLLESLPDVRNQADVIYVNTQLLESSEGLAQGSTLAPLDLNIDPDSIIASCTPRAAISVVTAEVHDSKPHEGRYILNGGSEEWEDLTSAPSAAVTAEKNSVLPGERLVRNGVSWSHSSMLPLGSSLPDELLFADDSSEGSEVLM
Assay: phosphorylation enrichment, bacterial display (enrichment ratio); higher = better substrate or ligand; peptides without Tyr show the background;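 also: 11-residue human phosphosite peptides and single-mutation variants displayed on the E. coli surface, counted by deep sequencing, each peptide's frequency after selection divided by its frequency in the unselected input library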;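 also: frequency after pTyr selection over input frequency; kinase dosed for 20-30% of maximal phosphorylation in three min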
Below: a set of entries, each annotated with reported phosphorylation enrichment.
// no unit string in output, number only

Solved cases below.
sequence_record="VTRLRYPVCFG [ITK_Y336]" tested_system="MERTK (UniProt Q12866)" parameter="phosphorylation enrichment" value_observed=0.471
sequence_record="EEALHYLTRVE [SET_Y119]" tested_system="MERTK (UniProt Q12866)" parameter="phosphorylation enrichment" value_observed=0.469
sequence_record="VPVPGYTKVPE [SPRR3_Y146_L149V]" tested_system="MERTK (UniProt Q12866)" parameter="phosphorylation enrichment" value_observed=0.501

[Q] Please tell me: phosphorylation enrichment of LVRPPYSFSAL [FOXI1_Y126_YF] , system MERTK (UniProt Q12866)?
[A] 0.363

[Q] Tell me reported phosphorylation enrichment for PPQFSYGLQTQ [SRA1_Y35] , tested with MERTK (UniProt Q12866).
[A] 0.467

[Q] // lookup phosphorylation enrichment | system=MERTK (UniProt Q12866) | key= MCTVDYLLRLQ [RYR1_Y3921_I3916M]
[A] 0.516

[Q] Provide the documented phosphorylation enrichment with MERTK (UniProt Q12866) as the system for VFSTDCFRVGG [NTRK2_Y706_Y706C_YF]
[A] 0.549

[Q] Provide the documented phosphorylation enrichment with MERTK (UniProt Q12866) as the system for FTRNFYVWAVL [CYBA_Y88_R90W_YF]
[A] 0.454

[Q] Hi! What's the reported phosphorylation enrichment for SLAARYFNWVC [FLT4_Y1230_S1235C_YF] on MERTK (UniProt Q12866)?
[A] 0.514

[Q] Lab request: please report phosphorylation enrichment under test system MERTK (UniProt Q12866) for RASGIYFVPKG [APBB1IP_Y340_YF]
[A] 13.8

[Q] # returns recorded phosphorylation enrichment (system: MERTK (UniProt Q12866)) for QRIHNYYEHRY [HCN4_Y554_D553N]
[A] 1.62

[Q] Recorded phosphorylation enrichment for RFLERYIYNRE [HLA-DPB1_Y57] with MERTK (UniProt Q12866), please?
[A] 0.533

[Q] Requested read-out phosphorylation enrichment, target or system MERTK (UniProt Q12866), entry WNNLDYMDSRR [GAA_Y407_D404N]
[A] 0.392

[Q] Lab note: need phosphorylation enrichment for QNKEDYAGLKE [GSTO1_Y139] on MERTK (UniProt Q12866), anyone have it?
[A] 1.09

[Q] Can you look up phosphorylation enrichment on MERTK (UniProt Q12866) for SVVMPYEPPEV [TP53_Y220_V218M] ?
[A] 0.492

[Q] Enter reported phosphorylation enrichment observed with MERTK (UniProt Q12866) for EPTPSYEVGQR [TSC2_Y1788_G1787S]
[A] 0.383

[Q] Fill in the recorded phosphorylation enrichment for this sequence, with MERTK (UniProt Q12866) as test system: GTTIHYNFMCN [TP53_Y234_C229G_YF]
[A] 0.465

[Q] Lab note: need phosphorylation enrichment for RRNSPYSQTMK [TET2_Y819] on MERTK (UniProt Q12866), anyone have it?
[A] 0.813

[Q] Provide value of phosphorylation enrichment for this record tested with MERTK (UniProt Q12866): GIVEDYRPRFY [ACVRL1_Y421_P424R]
[A] 0.674

[Q] Return phosphorylation enrichment measured with MERTK (UniProt Q12866) given this sequence: RSAGKDDVYLI [MECP2_Y120_Y120D]
[A] 0.399

[Q] GET /values?readout=phosphorylation enrichment&system=MERTK (UniProt Q12866)&item= DVQNEYDSNHC [ZFYVE16_Y36_A35E]
[A] 0.477

[Q] Write down the reported phosphorylation enrichment of TIMTNYNPNFC [ALK_Y1092_D1091N_YF] , test system: MERTK (UniProt Q12866).
[A] 0.485

[Q] Give recorded phosphorylation enrichment with MERTK (UniProt Q12866) for the following sequence: ADLAKYICENR [ALB_Y287_Q292R]
[A] 0.45

[Q] // map AGTILYHAHLG [ASS1_Y291_D296G] to recorded phosphorylation enrichment (system: MERTK (UniProt Q12866))
[A] 0.863
